# Test system: vGLUT1- bzw. vGLUT2-Transporter
# ASSAY_PROTOCOL: Glutamate uptake in rat crude synaptic vesicles ([3H]-glutamate uptake)
# Assay type: biochemical, Ratte
# ASSAY_CONDITIONS: read-out: VGLUT (Ratte), IC50
# Description: I. Funktionelle Untersuchung an den vGLUT1- bzw. vGLUT2-Transportern Die agonistische bzw. antagonistische Wirkung der zu untersuchenden Verbindungen am vGLUT1- bzw. vGLUT2-Transporter der Spezies Ratte kann mit folgendem Assay bestimmt werden. Glutamat-Uptake in Rattenvesikel ('rat crude synaptic vesicles') Die Präparation von Vesikeln wurde aus Rattengehirn-Homogenaten (männlichen Ratten, Stamm Wistar SPF, 150-250 g Gewicht) durchgeführt gemäß Roseth et al. (1995) J. Neurochem. […]

>  <STRUCTURE_NOTATION>
O=C(Nc1cc([N+](=O)[O-])ccc1C(=O)O)c1ccc(C(=O)Nc2cc([N+](=O)[O-])ccc2C(=O)O)cc1

>  <TARGET_DESC>
vGLUT1- bzw. vGLUT2-Transporter

>  <IC50>
860 nM

$$$$
>  <STRUCTURE_NOTATION>
O=C(Nc1ccccc1C(=O)O)c1cccc(C(=O)Nc2ccccc2C(=O)O)c1

>  <TARGET_DESC>
vGLUT1- bzw. vGLUT2-Transporter

>  <IC50>
3350 nM

$$$$
>  <STRUCTURE_NOTATION>
O=C(Nc1ccccc1C(=O)O)c1ccc(C(=O)Nc2ccccc2C(=O)O)cc1

>  <TARGET_DESC>
vGLUT1- bzw. vGLUT2-Transporter

>  <IC50>
1290 nM

$$$$
>  <STRUCTURE_NOTATION>
O=C(Nc1cc([N+](=O)[O-])ccc1C(=O)O)c1cccc(C(=O)Nc2cc([N+](=O)[O-])ccc2C(=O)O)c1

>  <TARGET_DESC>
vGLUT1- bzw. vGLUT2-Transporter

>  <IC50>
320 nM

$$$$
>  <STRUCTURE_NOTATION>
O=C(Nc1ccccc1C(=O)O)c1ccc(Oc2ccc(C(=O)Nc3ccccc3C(=O)O)cc2)cc1

>  <TARGET_DESC>
vGLUT1- bzw. vGLUT2-Transporter

>  <IC50>
2260 nM

$$$$
